Reference source for all entries: ChEMBL document CHEMBL4765278

Catalogue of Ratio IC50 readings, one per entry.
# experimentSummary: Selectivity index, ratio of IC50 for inhibition of TRAP6-induced platelet aggregation in human platelet to IC50 for inhibition of collagen-induced platelet aggregation in human platelet
# Format: functional

Use these answered entries as a reference point.
- molecule: "CCC1(CC)C=CC(=O)c2c(O)c3c(c(O)c21)CC=CC3"
  Ratio IC50: 0.69
- molecule: "CC1C=CC(CO)c2c(O)c3c(c(O)c21)C(C)(C)C=CC3=O (stereo not given)"
  Ratio IC50: 1.37
- molecule: "Cc1c(C)c(O)c2c(c1O)C(=O)C=CC2(C)C"
  Ratio IC50: 8.35

// query Identify measured Ratio IC50 associated with O=C1C=CC2(CCCC2)c2c(O)ccc(O)c21
// result 56.5

// query Identify measured Ratio IC50 associated with CC1(C)C=CC(=O)c2c(O)c3c(c(O)c21)CC=CC3
// result 4.86

// query Identify measured Ratio IC50 associated with CC1(C)C=CC(=O)c2c(O)ccc(O)c21
// result 7

// query Identify measured Ratio IC50 associated with CC1C=CC(CO)c2c(O)c3c(c(O)c21)C(=O)C=CC3(C)C (stereo not given)
// result 22.83

// query Identify measured Ratio IC50 associated with CCC1(CC)C=CC(=O)c2c(O)ccc(O)c21
// result 0.9

// query Identify measured Ratio IC50 associated with CCCSc1nc(N[C@@H]2C[C@H]2c2ccc(F)c(F)c2)c2nnn([C@@H]3C[C@H](OCCO)[C@@H](O)[C@H]3O)c2n1 [TICAGRELOR]
// result 2

// query Identify measured Ratio IC50 associated with O=C1C=CC2(CCCC2)c2c(O)c3c(c(O)c21)CC=CC3
// result 3.92

* * *

# experimentSummary: Inhibition of TRAP6-induced platelet aggregation in human platelet preincubated for 5 mins followed by TRAP6-stimulation and measured after 6 mins by lumi-aggregometric method
# Format: functional, tissue-based
pIC50: −log10 of the molar value.
measureName: pIC50

Use these answered entries as a reference point.
- molecule: "CCCSc1nc(N[C@@H]2C[C@H]2c2ccc(F)c(F)c2)c2nnn([C@@H]3C[C@H](OCCO)[C@@H](O)[C@H]3O)c2n1 [TICAGRELOR]"
  measured: 5.40
- molecule: "O=C1C=CC2(CCCC2)c2c(O)ccc(O)c21"
  measured: "< 4.00"
- molecule: "CC1(C)C=CC(=O)c2c(O)c3c(c(O)c21)CC=CC3"
  measured: "< 4.00"
- molecule: "CC1(C)C=CC(=O)c2c(O)ccc(O)c21"
  measured: "< 4.00"
- molecule: "CCC1(CC)C=CC(=O)c2c(O)ccc(O)c21"
  measured: 4.50

// query Identify measured pIC50 associated with CC1C=CC(CO)c2c(O)c3c(c(O)c21)C(=O)C=CC3(C)C (configuration not stated)
// result < 4.00

// query Identify measured pIC50 associated with CCC1(CC)C=CC(=O)c2c(O)c3c(c(O)c21)CC=CC3
// result 4.93

// query Identify measured pIC50 associated with CC1C=CC(COC(=O)C2CCCCC2)c2c(O)c3c(c(O)c21)C(=O)C=CC3(C)C (configuration not stated)
// result < 4.00

// query Identify measured pIC50 associated with CC1C=CC(CO)c2c(O)c3c(c(O)c21)C(C)(C)C=CC3=O (configuration not stated)
// result 4.80

// query Identify measured pIC50 associated with CC1C=CC(COC(=O)C2CCCCC2)c2c(O)c3c(c(O)c21)C(C)(C)C=CC3=O (configuration not stated)
// result < 4.00

// query Identify measured pIC50 associated with O=C1C=CC2(CCCC2)c2c(O)c3c(c(O)c21)CC=CC3
// result < 4.00

// query Identify measured pIC50 associated with Cc1c(C)c(O)c2c(c1O)C(=O)C=CC2(C)C
// result < 4.00
